Please go through the items and note down their z-score.
# Assay Overview: S. cerevisiae growth modulation with rapamycin, primary screen, strain BY4716, OD600, 96 h (AID 1091); note: test concentration not given here
# Condition Info: higher = more signal, called active from +8 up or from −8 down
Keep it simple and answer with nothing but the number.

Tell me its z-score given `O=C1C[C@@](C(=O)NCCN2CCOCC2)(c2ccc([N+](=O)[O-])cc2)[C@@H](c2ccc(CO)cc2I)N1C1CCCCC1` as the entry. -1.05

Tell me its z-score given `COc1ccc(CCNC(=O)[C@@]2(Sc3ccc(C)cc3)CC(=O)N(C3Cc4ccccc4C3)[C@@H]2c2ccc(CO)cc2)cc1` as the entry. 0.707

Tell me its z-score given `CCCCO[C@H]1C[C@H]2C(I)=C[C@@H]1C(=O)[C@]21CO1` as the entry. -1.68

Tell me its z-score given `Cc1ccc(S[C@]2(C(=O)O)CC(=O)N(Cc3cc(C(F)(F)F)cc(C(F)(F)F)c3)[C@@H]2c2ccc(CO)cc2)cc1` as the entry. -0.0248

Tell me its z-score given `O=C(CS)NCCCCCNC(=O)[C@@H]1C[C@@H]2C(=O)N3CCC[C@H]3C(=O)N2[C@@H]1c1cccc(OCCO)c1` as the entry. -0.153

Tell me its z-score given O=C1NC(=O)C2C1C=CC(C(O)CCc1ccccc1)N2Nc1ccc(Cl)cc1Cl (configuration not stated) as the entry. 0.0242

Tell me its z-score given C=CCC(OC(C)=O)[C@@H]1[C@@H](N(Cc2cc3ccccc3o2)C(=O)c2ccc(-c3ccccc3)cc2)c2cc(OCCCO)ccc2N1C(=O)c1ccc2ccccc2c1 (some centres not stated) as the entry. 1.03

###

# System: Inhibin beta A chain (activin A)
# Assay Overview: INHBA (activin A) binders on microarrays, primary screen, biochemical, small-molecule microarray, 635 nm fluorescence scan (AID 1107);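 note: mouse activin A protein probed at 4.33 µg/mL on printed slides; score merges bound-protein fluorescence near 667 nm with spot signal-to-noise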
# Condition Info: small-molecule microarray binding, higher = more signal
Experimental Readout: composite z-score
Keep it simple and answer with nothing but the number.

Tell me its composite z-score given `COc1ccc([Si](C)(C)[C@@H]2[C@@H](CC(=O)N3Cc4ccccc4C[C@H]3CO)O[C@]3(C(=O)N(C)c4ccccc43)[C@H]2C)cc1` as the entry. 0.916

Tell me its composite z-score given `CO[C@H]1O[C@H](CO)[C@@H](OC(=O)Nc2ccccc2-c2ccccc2)[C@H](OC(=O)Nc2ccc3c(c2)OCO3)[C@H]1OC(=O)Nc1ccc2c(c1)OCO2` as the entry. 0.752

Tell me its composite z-score given `O=C(NCC(F)(F)F)[C@@H]1c2ccccc2C(=O)N(Cc2ccccc2C(F)(F)F)[C@H]1c1ccc(CO)cc1` as the entry. 0.547

Tell me its composite z-score given C=C(C)[C@@H]1CC=C(C(O)C2C=CC3C(=O)N(c4ccccc4)C(=O)C3N2Nc2ccccc2F)CC1 (some centres not stated) as the entry. 0.725

Tell me its composite z-score given COc1cc(OC)c(C(O)C2C=CC3C(=O)N(C)C(=O)C3N2NC(=O)OC(C)(C)C)cc1Br (configuration not stated) as the entry. 0.594

Tell me its composite z-score given `CC(C)[Si](C#CCCCC#N)(O[C@H](c1ccccc1)c1cn([C@H](CO)Cc2ccccc2)nn1)C(C)C` as the entry. 0.0469

Tell me its composite z-score given `CC(C)C[C@@H]1NC(=O)[C@@H]2C[C@H](C(=O)NCCCCN(C)C)[C@H](c3cccc(OCCO)c3)N2C1=O` as the entry. 0.266

Measured values drawn from PubChem BioAssay for this set.
